Data provenance: patent US9353082B2

- Target or system: FAAH (Mus musculus)
- Construct: A fragment of liver, left lung lobe and brain without cerebellum were removed; from tissue; host or cells: male NMRI mice; brain (without cerebellum) and liver homogenates
- Sequence (O08914 whole entry, the tested form may be a part): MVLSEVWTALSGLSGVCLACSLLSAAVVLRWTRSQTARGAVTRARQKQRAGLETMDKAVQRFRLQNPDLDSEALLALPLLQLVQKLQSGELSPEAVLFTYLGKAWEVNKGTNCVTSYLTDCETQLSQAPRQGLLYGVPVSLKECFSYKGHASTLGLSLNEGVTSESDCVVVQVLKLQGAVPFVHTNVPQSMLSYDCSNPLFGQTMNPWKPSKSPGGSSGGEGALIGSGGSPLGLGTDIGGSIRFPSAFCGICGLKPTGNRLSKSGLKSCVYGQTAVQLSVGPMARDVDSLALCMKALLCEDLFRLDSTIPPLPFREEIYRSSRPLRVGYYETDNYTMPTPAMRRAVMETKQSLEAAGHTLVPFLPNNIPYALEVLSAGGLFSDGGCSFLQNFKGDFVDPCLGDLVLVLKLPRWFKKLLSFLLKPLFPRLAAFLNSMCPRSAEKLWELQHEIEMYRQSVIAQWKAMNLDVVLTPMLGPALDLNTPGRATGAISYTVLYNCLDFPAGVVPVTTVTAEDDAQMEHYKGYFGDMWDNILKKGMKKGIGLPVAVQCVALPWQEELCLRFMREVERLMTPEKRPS
- Experiment description: In vivo FAAH inhibition after oral dosing, remaining activity in brain homogenate (BRh, central nervous tissue)
- Design: species or system NMRI mice
- Condition details: brain homogenate, 30 mg/kg, 1 h
In Vivo BRh 30 mg/kg 1 h, remaining FAAH activity values for the compounds below.

Solved entries:
Structure notation	Meas value
CN(C(=O)n1nnc2ccccc21)c1ccccc1	33.6 % of control
CN(C(=O)n1nnc2ccccc21)c1ccc(Cl)cc1	57 % of control
CN(Cc1ccccc1)C(=O)n1nnc2ccccc21	1.4 % of control
O=C(N1CCc2ccccc2C1)n1nnc2ccccc21	32.6 % of control
O=C(N1CCC(Cc2ccccc2)CC1)n1nnc2ccccc21	8.4 % of control
CN(C(=O)n1cnc(-c2ccccc2)c1)c1ccccc1	14.3 % of control

GET /values?readout=In Vivo BRh 30 mg/kg 1 h, remaining FAAH activity&item= CN(C(=O)n1nnc2ccccc21)c1ccc(F)cc1F
52 % of control

Moving on to the next compound: CN(C(=O)n1cnc(-c2cccc(O)c2)c1)c1ccccc1
81.5 % of control

Quick one: O=C(N1CCN(c2ccccc2)CC1)n1nnc2ccccc21
87.6 % of control

Entry CN(C(=O)n1nnc2cc(Cl)ccc21)c1ccccc1 please
82.3 % of control
